Ref: paper PMC12280060

# tested target: semi-synthetic Ribonuclease (PDB ID 1SSC), immobilised as MBP-8xHis-1SSC (Bos taurus, UniProt P61823)
# Construct: made in house; host or cells: E. coli BL21 (DE3) T1R
# Sequence (P61823 27-138 limits assumed): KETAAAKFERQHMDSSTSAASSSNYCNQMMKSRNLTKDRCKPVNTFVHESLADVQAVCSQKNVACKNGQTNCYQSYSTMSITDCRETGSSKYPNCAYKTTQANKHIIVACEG
# experiment summary: biochemical
# Type: binding
pKd: −log10 of the molar value. No end group written: not given here.
measured quantity: pKd

| sequence | test value |
| --- | --- |
| PYVPVHFDASV [PYVPVHFDASV] | 5.91 |
